system: TK-10 renal; experiment: NCI tumour cell line growth inhibition, 48 h
readout type: GI50

Task item: Query GI50 for `CCCCCCCCNCCC[C@@H](C)[C@H]1CC[C@H]2[C@@H]3[C@H](OCCCN)C[C@H]4C[C@H](OCCCN)CC[C@]4(C)[C@H]3C[C@H](OCCCN)[C@]12C`
Reply: 1.79 µM

Task item: Query GI50 for `COC(=O)COc1ccc(/C=C2/N=C(c3ccccc3)N(c3c(C)n(C)n(-c4ccccc4)c3=O)C2=O)cc1`
Reply: 18.5 µM

Task item: Query GI50 for `N.N.N.N.N.O=[N+]([O-])[O-].[Co+3].[O-][Cl+3]([O-])([O-])[O-]`
Reply: > 100 µM

Task item: Query GI50 for `S=c1nc(N/N=C/c2ccco2)c2cn[nH]c2[nH]1`
Reply: > 100 µM

Task item: Query GI50 for `COc1ccc2[nH]c(O)c(/C=c3/cc4c(c(-c5ccc(F)c(OC)c5)n3)=Nc3ccccc3-4)c2c1`
Reply: 2.91 µM

Task item: Query GI50 for `Cc1nc2c(n1C)C(=O)c1ccccc1C2=O`
Reply: > 100 µM

Task item: Query GI50 for `Cn1cc(-c2ccc3nnc(Sc4ccc5ncccc5c4)n3n2)cn1`
Reply: 40.7 µM

Task item: Query GI50 for `c1ccc2c(-c3nc(-c4c[nH]c5ccncc45)cs3)c[nH]c2c1`
Reply: 2.76 µM

Task item: Query GI50 for O=c1/c(=C\c2ccc(F)cc2)sc2n1C(c1ccc(F)cc1)C1=C(N=2)c2ccc3ccccc3c2OCC1 (centres undefined)
Reply: > 100 µM

----------
system: UO-31 renal; experiment: NCI tumour cell line growth inhibition, 48 h
readout type: TGI

Task item: Query TGI for `Cc1ccc(N=Nc2c(O)ccc3ccccc23)cc1`
Reply: > 100 µM

Task item: Query TGI for Cc1cc(O)c(C2=NN(c3ccc(S(N)(=O)=O)cc3)C(c3ccc(Cl)cc3)C2)c(C)c1Cl (stereo not given)
Reply: 19.2 µM

Task item: Query TGI for `CCN(c1cc(-c2ccc(CN3CCOCC3)cc2)cc(C(=O)NCc2c(C)cc(C)[nH]c2=O)c1C)C1CCOCC1`
Reply: > 51.3 µM

Task item: Query TGI for `CSCCCNC(=O)c1ccc2c(c1)/C(=C/c1[nH]c(C)cc1C)C(=O)N2`
Reply: > 100 µM

Task item: Query TGI for `CC(C)(C)OC(=O)NCCCn1c2c(c3ccccc3c1=O)C(=O)c1ccccc1-2`
Reply: > 100 µM

Task item: Query TGI for `c1ccc(CN2CCC(Nc3ccccc3)(c3nnnn3Cc3ccccc3)CC2)cc1`
Reply: 26.6 µM

Task item: Query TGI for `Cc1c2c(c(C)c3c4c(oc13)CCCC4)C=NCC2`
Reply: 25.8 µM

Task item: Query TGI for NNC(=O)C(=O)N/N=C1\CCC(=O)CC1C(=O)CCC(=O)Nc1ccc(Cl)cc1 (stereo not given)
Reply: > 100 µM

Task item: Query TGI for `CCOC(=O)Nn1c(CC#N)nnc1Cc1ccccc1`
Reply: > 100 µM

Task item: Query TGI for `O=c1cc(N/N=C/c2ccc(F)cc2)c2cc(Cl)ccc2[nH]1`
Reply: > 100 µM

----------
tested on: SK-MEL-28 melanoma; assay: NCI tumour cell line growth inhibition, 48 h
Hi there, I'd appreciate the recorded TGI for every entry that follows.

Task item: Query TGI for CC(C)C(C/C=C1\CC(CO)(COC(=O)C2CCCCC2)OC1=O)C(C)C (stereo not given)
Reply: 33.8 µM

Task item: Query TGI for CCc1cc2c(c3c1CCCC3=O)CC1(Cc3ccc(C(=O)OC)cc3C1)C2 (stereo not given)
Reply: > 100 µM

Task item: Query TGI for `COc1cc(NC(=O)CCSc2nc3ccc(C)cc3c(=O)n2Cc2ccccc2)cc(OC)c1OC`
Reply: > 100 µM

Task item: Query TGI for COc1cc(C2c3cc4c(cc3C3OC[C@@H]2C3CO)OCO4)cc(OC)c1OC (stereo not given in full)
Reply: > 100 µM

Task item: Query TGI for C=C1C(=O)OC2CC(C)C3CC(O)OC(OCC)C3(C)CC12 (stereo not given)
Reply: 27.5 µM

Task item: Query TGI for `COc1ccc(CCn2c(=O)c3ccccc3n(C)c2=O)cc1`
Reply: > 100 µM

Task item: Query TGI for COc1ccc(C(SC2C(O)C(CO)OC2n2ccc(=O)[nH]c2=O)(c2ccccc2)c2ccc(OC)cc2)cc1 (stereo not given)
Reply: 53.9 µM

Task item: Query TGI for `C[Si](C)(C)/C=C\CCO`
Reply: > 100 µM

Task item: Query TGI for `Cc1cc(C)c2c(c1)C(=O)/C(=C/c1ccccc1C(=O)O)C2`
Reply: > 100 µM

Task item: Query TGI for `CCOP(=O)(O)CN1CCNCCN(CP(=O)(O)OCC)CCNCC1`
Reply: > 100 µM
